Form: system (H. pylori Shikimate Dehydrogenase (HpSDH) (Helicobacter pylori)), quantity (Ki), values below.
Answers are plain numbers, in µM.

compound	target_desc	Ki (µM)
C=CCN1C(=O)C(=C/C=C/c2ccccc2)C(=O)N(CC=C)C1=O [25a]	H. pylori Shikimate Dehydrogenase (HpSDH) (Helicobacter pylori)	2.01

Quick one: give me Ki for each item below, same order please.
1. O=C1NC(=O)C(=C/C=C/c2ccc(NC(=O)c3ccccc3)cc2)C(=O)N1
2. CSc1ccc(/C=C/C=C2C(=O)NC(=O)NC2=O)cc1

[6.93, 2.67]

Just so you know, measured Ki for COc1cc(/C=C/C=C2C(=O)NC(=O)NC2=O)cc(OC)c1 came out at 3.81

###

# Test system: H. pylori
# protocol_text: Minimum bactericidal concentration assay (MBC assay) against H. pylori
# Format: cell-based, Helicobacter pylori
# recorded_conditions: Helicobacter pylori, clinical isolated strain v1254
observed_property: MBC

Consider the following illustrative entries.
compound	MBC
COc1ccc(/C=C/C=C2C(=O)NC(=O)NC2=O)cc1	8 µg/mL
COc1cccc(OC)c1/C=C/C=C1C(=O)NC(=O)NC1=O	32 µg/mL
O=C1NC(=O)C(=C/C=C/c2ccc([N+](=O)[O-])cc2)C(=O)N1	8 µg/mL
COc1cc(/C=C/C=C2C(=O)NC(=O)NC2=O)cc(OC)c1	32 µg/mL
C=CCN1C(=O)C(=C/C=C/c2ccccc2)C(=O)N(CC=C)C1=O [25a]	8 µg/mL
CSc1ccc(/C=C/C=C2C(=O)NC(=O)NC2=O)cc1	8 µg/mL

Here is another compound to look at.
Consider O=C1NC(=O)C(=C/C=C/c2ccc(NC(=O)c3ccccc3)cc2)C(=O)N1 . Its measured MBC is 16 µg/mL

###

# Tested on: H. pylori
# protocol_text: Minimum bactericidal concentration assay (MBC assay) against H. pylori
# Type: cell-based, Helicobacter pylori
# recorded_conditions: W.T 26695
observed_property: MBC value against H. pylori (µg/mL)
One number for each entry, in µg/mL.

Consider the worked cases shown below.
compound	observed_property	unit_text	result_value
CSc1ccc(/C=C/C=C2C(=O)NC(=O)NC2=O)cc1	MBC value against H. pylori	µg/mL	8.0
C=CCN1C(=O)C(=C/C=C/c2ccccc2)C(=O)N(CC=C)C1=O [25a]	MBC value against H. pylori	µg/mL	8.0
C=CCN1C(=O)NC(=O)/C(=C/C=C/c2ccccc2)C1=O	MBC value against H. pylori	µg/mL	5.0
COc1cc(/C=C/C=C2C(=O)NC(=O)NC2=O)cc(OC)c1	MBC value against H. pylori	µg/mL	8.0

The compound identified as O=C1NC(=O)C(=C/C=C/c2ccc([N+](=O)[O-])cc2)C(=O)N1 registered its MBC value against H. pylori at 8.0

###

Would you kindly list MBC value against H. pylori for each of these compounds?
# System: H. pylori
# protocol_text: Minimum bactericidal concentration assay (MBC assay) against H. pylori
# Format: cell-based, Helicobacter pylori
# recorded_conditions: W.T 26695
# Procedure: To evaluate the anti-H. pylori activity, the minimum bactericidal concentration (MBC) value of compounds was determined. The MBC value of standard antibiotics, clarithromycine (CLR) and metronidazole (MTZ) were served as the positive control. […] Wild type and selected clinical H. pylori strains was cultured for 24 to 36 hours and measured by Cell density meter, O.D. 680 at 0.87-0.9. […]
Answers are plain numbers, in µg/mL.

Please review the entries below; each comes with its answer.
mol	observed_property	unit_text	result_value
COc1cccc(OC)c1/C=C/C=C1C(=O)NC(=O)NC1=O	MBC value against H. pylori	µg/mL	8.0
Cc1cc(C)cc(N2C(=O)NC(=O)/C(=C\C=C\c3ccccc3)C2=O)c1	MBC value against H. pylori	µg/mL	10.0

Next:
Measured MBC value against H. pylori, COc1ccc(/C=C/C=C2C(=O)NC(=O)NC2=O)cc1 : 8.0

The reported measurements were obtained from patent US9145374B2.
